# system: L-lactate dehydrogenase A chain (Homo sapiens)
Quick reference: log10 of IC50 of the listed items.
recorded_metric: log10 of IC50 (log10 of the value in nM)

[
  {
    "structure_string": "NS(=O)(=O)c1ccc(Cc2cn(-c3nc(C(=O)O)cs3)nc2-c2ccccc2)cc1",
    "quantitative_result": 2.25
  },
  {
    "structure_string": "O=C(O)c1csc(-n2nc(-c3ccccn3)cc2O)n1",
    "quantitative_result": 3.01
  },
  {
    "structure_string": "O=C(O)c1csc(-n2nc(C3CCCCC3)cc2O)n1",
    "quantitative_result": 3.04
  },
  {
    "structure_string": "O=C(O)c1csc(-n2nc(-c3cccc(F)c3)cc2O)n1",
    "quantitative_result": 2.21
  },
  {
    "structure_string": "O=C(O)c1csc(-n2nc(-c3ccc(Cl)c(Cl)c3)cc2O)n1",
    "quantitative_result": 2.03
  },
  {
    "structure_string": "O=C(O)c1csc(-n2nc(-c3cccc(-c4ccccc4F)c3)cc2O)n1",
    "quantitative_result": 1.98
  },
  {
    "structure_string": "O=C(O)c1csc(-n2nc(-c3ccccc3)cc2O)n1",
    "quantitative_result": 2.16
  },
  {
    "structure_string": "CC(=O)Nc1cc(-c2ccccc2)nn1-c1nc(C(=O)O)cs1",
    "quantitative_result": 3.98
  },
  {
    "structure_string": "O=C(O)c1csc(-n2nc(-c3ccncc3)cc2O)n1",
    "quantitative_result": 2.83
  },
  {
    "structure_string": "O=C(O)c1csc(-n2nc(-c3cccc(-c4ccccc4)c3)cc2O)n1",
    "quantitative_result": 2.42
  },
  {
    "structure_string": "Nc1cc(-c2ccccc2)nn1-c1nc(C(=O)O)cs1",
    "quantitative_result": 4.43
  }
]

---

# system: L-lactate dehydrogenase A chain (Homo sapiens)
pIC50: −log10 of the molar value.
recorded_metric: pIC50

[
  {
    "structure_string": "O=C(O)c1csc(-n2nc(-c3ccccc3)cc2C(F)F)n1",
    "result": "< 4.24"
  },
  {
    "structure_string": "CC(C)c1cc(-c2ccccc2)nn1-c1nc(C(=O)O)cs1",
    "result": "< 4.24"
  },
  {
    "structure_string": "O=C(O)c1csc(-n2nc(-c3ccccc3Cl)cc2C(F)(F)F)n1",
    "result": "< 4.24"
  }
]
